B1: Azoarcus group I ribozyme (parent)
chain: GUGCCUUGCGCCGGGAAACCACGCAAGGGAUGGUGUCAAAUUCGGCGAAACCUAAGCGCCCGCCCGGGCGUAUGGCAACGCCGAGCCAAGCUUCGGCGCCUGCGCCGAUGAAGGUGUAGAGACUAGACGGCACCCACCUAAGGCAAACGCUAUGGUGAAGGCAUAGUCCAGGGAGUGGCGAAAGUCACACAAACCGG

Variants of: B1
Assay protocol: reverse-splicing fitness (ratio to wild type); higher = more active; in vitro selection; Mg2+ level not given
Our labelling divides records by reverse-splicing fitness into ranges: lo = under 0.006, mid = from 0.006 up to 0.02, hi = 0.02 and over

The examples below pair each entry with its known result.
{"Changes": "C82U A145C C150G C169A U176G", "Answer label": "lo"}
{"Changes": "C82A A111U A120C A145C C150U C169G U176G", "Answer label": "mid"}
{"Changes": "A111U A120G A145C C150G C169A U176G", "Answer label": "lo"}

Class (by measured reverse-splicing fitness) for C82A A111U A120C C169U U176G
mid

Class (by measured reverse-splicing fitness) for A111C A145G C150G C169U
mid

Class (by measured reverse-splicing fitness) for C82G A111G A120C U176A
hi

Class (by measured reverse-splicing fitness) for C82U A120U A145C C150U U176G
lo
